# Measurement target: LC3B (Homo sapiens, UniProt Q9GZQ8)
# Experimental protocol: Fluorescence Polarization (FP) Assay: displacement of FITC-labeled peptide from GST-LC3B
# Format: binding
# Test conditions: Fluorescence Polarization assay; GST-LC3B 180 nM, FITC-labeled peptide 18 nM, 25° C.; read-out: IC50
Structures can show the parent of a compound that is named as a salt.
Measured IC50, listed per entry.

Take a look at these entries with their results.
O=C1Nc2ccccc2C(=O)/C1=C/NCCN1CCN(CCO)CC1    15 to 100 µM
O=C1CC(c2ccccc2O)CC(=O)C1=CO (stereo not drawn)    15 to 100 µM
CN(C)CCNC=C1C(=O)CC(c2c(F)c(F)c(F)c(F)c2F)CC1=O (stereo not drawn)    < 3 µM
O=C1CC(c2ccccc2)CC(=O)C1=CNCCCCl (stereo not drawn)    100 to 1000 µM
O=C1CC(c2cccc3[nH]ccc23)CC(=O)C1=CO (stereo not drawn) [Compound 459, lithium salt]    < 3 µM
O=C1CC(c2cnc3c(N4CCOCC4)nccn23)CC(=O)C1=CNCCN1CCN(CCO)CC1 (stereo not drawn)    100 to 1000 µM

Query: What measured IC50 goes with O=C1CC(c2cccc3[nH]ncc23)CC(=O)C1=CNCCN1CCN(CCO)CC1 (stereo not drawn) ?
Response: 3 to 15 µM

Query: What measured IC50 goes with O=C1CN(C(=O)c2ccccc2)CC(=O)C1=CNCCN1CCN(CCO)CC1 ?
Response: 15 to 100 µM

Query: What measured IC50 goes with CN(C)C=C1C(=O)CC(c2cncc3ccccc23)CC1=O (stereo not drawn) ?
Response: 3 to 15 µM

Source: patent US11319303B2
